src = paper PMC6522930

System: HUVEC cells
Protocol Summary: Cell survival experiment (cytotoxicity)
Format: cell-based
Setup Conditions: HUVEC cells, 10^−3 mol l^−1
Field: Cell survival rate. Provide a value for each of the compounds that follow.
Remember to quote the unit after the number.

Use the examples below as a reference point.
Qu. I am curious: what Cell survival rate value has been reported for Cc1ccc(C(=O)NCCOc2ccc(CC3SC(=O)NC3=O)nc2)cc1 (centres unmarked) ?
Ans. 98.3 ± 0.45%

Qu. So what does the record say about Cell survival rate for O=C1NC(=O)C(Cc2ccc(OCCNC(=O)c3ccccc3)cc2)S1 (centres unmarked) ?
Ans. 98.1 ± 0.28%

Qu. Tell me the measured Cell survival rate of Cc1ccc(C(=O)NCCOc2ccc(CC3SC(=O)NC3=O)cc2)cc1 (centres unmarked) , please.
Ans. 99.1 ± 0.08%

Qu. I'd like to know its Cell survival rate. The compound in question is Cc1ccc(C(=O)NCCOc2ccc(CC3SC(=O)NC3=O)cc2)nc1 (centres unmarked)
Ans. 98.6 ± 0.44%

***
Qu. # input compound: O=C1NC(=O)C(Cc2ccc(OCCNC(=O)c3ccc(O)cc3)cc2)S1 (centres unmarked) ; wanted: its Cell survival rate
Ans. 98.8 ± 0.29%

----------
Study Target: UniProt Q03181
Sequence (Q03181 whole entry): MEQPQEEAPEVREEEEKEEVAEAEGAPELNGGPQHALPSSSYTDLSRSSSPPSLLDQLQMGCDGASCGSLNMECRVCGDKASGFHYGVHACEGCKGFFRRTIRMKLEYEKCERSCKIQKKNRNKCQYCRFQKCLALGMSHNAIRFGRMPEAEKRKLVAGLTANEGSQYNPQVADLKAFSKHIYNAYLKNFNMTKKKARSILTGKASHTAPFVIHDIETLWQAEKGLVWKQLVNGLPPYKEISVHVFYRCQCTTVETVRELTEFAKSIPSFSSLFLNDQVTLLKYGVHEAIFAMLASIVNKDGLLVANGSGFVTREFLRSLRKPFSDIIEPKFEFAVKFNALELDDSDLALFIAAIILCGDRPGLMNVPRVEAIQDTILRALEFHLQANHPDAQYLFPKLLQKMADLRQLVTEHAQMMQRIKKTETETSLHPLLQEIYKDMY
Protocol Summary: In vitro activation of PPARβ (cells containing PPAR, EC50)
Setup Conditions: n ≥ 8; 24 h; read-out: EC50 ± SD PPARβ
Consider the following compounds; for each one, report its pEC50.
Give bare numbers, as −log10 of the molar value.

Qu. Requested read-out: pEC50. Entry: O=C1NC(=O)C(Cc2ccc(OCCNC(=O)c3ccc(O)cn3)cn2)S1 (stereo not shown)
Ans. 5.00

Qu. Using the record for O=C1NC(=O)C(Cc2ccc(OCCNC(=O)c3ccccc3)cn2)S1 (stereo not shown) , report its pEC50.
Ans. 5.04

Qu. Item under review: O=C1NC(=O)C(Cc2ccc(OCCNC(=O)c3ccc(O)cc3)cn2)S1 (stereo not shown) . Reported pEC50?
Ans. 4.84

Next up:
Qu. Quick check: pEC50 of O=C1NC(=O)C(Cc2ccc(OCCNC(=O)c3ccccn3)cn2)S1 (stereo not shown) ?
Ans. 4.91

----------
System: HUVEC cells
Protocol Summary: Cell survival experiment (cytotoxicity)
Type: cell-based
Setup Conditions: HUVEC cells, 10^−5 mol l^−1
Would you kindly list Cell survival rate for each of these compounds?
Numbers only, in %.

Qu. # query: Cell survival rate of entry Cc1ccc(C(=O)NCCOc2ccc(CC3SC(=O)NC3=O)cc2)cc1 (centres unmarked)
Ans. 100

Qu. What value of measured Cell survival rate is listed for O=C1NC(=O)C(Cc2ccc(OCCNC(=O)c3ccccc3)cc2)S1 (centres unmarked) ?
Ans. 99.9

Qu. Entry O=C1NC(=O)C(Cc2ccc(OCCNC(=O)c3ccc(O)cc3)cc2)S1 (centres unmarked) has what Cell survival rate?
Ans. 100

Batch lookup, Cell survival rate per entry.
1. Cc1ccc(C(=O)NCCOc2ccc(CC3SC(=O)NC3=O)nc2)cc1 (centres unmarked)
2. Cc1ccc(C(=O)NCCOc2ccc(CC3SC(=O)NC3=O)cc2)nc1 (centres unmarked)

Ans.
1: 99.8; 2: 100

----------
Protocol Summary: Lipid–water partition coefficient (log p)
Type: physicochemical
Test Readout: logP

Would you please look over these solved cases?
Qu. For the molecule shown here, O=C1NC(=O)C(Cc2ccc(OCCNC(=O)c3ccc(O)cc3)cc2)S1 (stereo not shown) , give the reported logP.
Ans. 2.8

Qu. Entry Cc1ccc(C(=O)NCCOc2ccc(CC3SC(=O)NC3=O)cc2)nc1 (stereo not shown) has what logP?
Ans. 2.83

Qu. Requested field: logP. Item: O=C1NC(=O)C(Cc2ccc(OCCNC(=O)c3ccc(O)cc3)cn2)S1 (stereo not shown)
Ans. 2.11

Please state, for each entry, its recorded logP.
1. O=C1NC(=O)C(Cc2ccc(OCCNC(=O)c3ccccc3)cn2)S1 (stereo not shown)
2. O=C1NC(=O)C(Cc2ccc(OCCNC(=O)c3ccccc3)cc2)S1 (stereo not shown)
3. Cc1ccc(C(=O)NCCOc2ccc(CC3SC(=O)NC3=O)nc2)cc1 (stereo not shown)
4. Cc1ccc(C(=O)NCCOc2ccc(CC3SC(=O)NC3=O)cc2)cc1 (stereo not shown)

Ans.
[1.77, 2.68, 2.56, 3.26]

----------
Study Target: PPARγ (Homo sapiens, UniProt P37231)
Sequence (P37231 whole entry): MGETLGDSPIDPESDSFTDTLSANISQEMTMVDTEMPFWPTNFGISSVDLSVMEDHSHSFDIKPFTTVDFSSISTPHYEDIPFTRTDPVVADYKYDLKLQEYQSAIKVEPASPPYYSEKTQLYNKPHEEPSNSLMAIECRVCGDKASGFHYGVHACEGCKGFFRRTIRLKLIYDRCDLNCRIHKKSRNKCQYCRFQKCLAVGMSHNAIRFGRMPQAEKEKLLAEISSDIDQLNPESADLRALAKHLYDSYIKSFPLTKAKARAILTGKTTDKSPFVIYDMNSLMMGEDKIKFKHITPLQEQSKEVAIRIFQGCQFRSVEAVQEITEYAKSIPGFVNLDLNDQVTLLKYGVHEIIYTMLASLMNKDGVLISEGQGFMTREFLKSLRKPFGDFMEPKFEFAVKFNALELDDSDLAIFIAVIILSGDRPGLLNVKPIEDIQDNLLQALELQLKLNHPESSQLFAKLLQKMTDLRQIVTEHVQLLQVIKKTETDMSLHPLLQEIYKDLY
Protocol Summary: In vitro activation of PPARγ (cells containing PPAR, EC50)
Setup Conditions: n ≥ 8; 24 h; read-out: EC50 ± SD PPARγ
Test Readout: pEC50
Answers are plain numbers, as −log10 of the molar value.

Recorded pEC50, per entry:
Qu. Can you look up the measured pEC50 of Cc1ccc(C(=O)NCCOc2ccc(CC3SC(=O)NC3=O)cc2)nc1 (stereo not drawn) for me?
Ans. 7.10

Qu. Please report the recorded pEC50 for O=C1NC(=O)C(Cc2ccc(OCCNC(=O)c3ccc(O)cc3)cn2)S1 (stereo not drawn) .
Ans. 6.47

Qu. Would you mind telling me what pEC50 value was observed for O=C1NC(=O)C(Cc2ccc(OCCNC(=O)c3ccc(O)cc3)cc2)S1 (stereo not drawn) ?
Ans. 7.15

Qu. Look up pEC50: Cc1ccc(C(=O)NCCOc2ccc(CC3SC(=O)NC3=O)nc2)cc1 (stereo not drawn)
Ans. 7.00

Qu. Quick one: pEC50 for Cc1ccc(C(=O)NCCOc2ccc(CC3SC(=O)NC3=O)cc2)cc1 (stereo not drawn) ?
Ans. 7.52

Moving on to the next molecule.
Qu. What value of pEC50 has been recorded for this entry: O=C1NC(=O)C(Cc2ccc(OCCNC(=O)c3ccccc3)cc2)S1 (stereo not drawn)
Ans. 7.10
